From: ChEMBL document CHEMBL1154610

experiment: Cmax in cynomolgus monkey at 5 mg/kg, po; format: ADME, organism-based, Macaca fascicularis; design: dose 5 mg/kg, route oral; settings: in vivo
measure: Cmax

Prompt line: Any idea what its Cmax is? The molecule is Cc1c(NC(=O)OC[C@@H]2COCCN2)cn2ncnc(Nc3ccc4c(cnn4Cc4cccc(F)c4)c3)c12
Response line: 500 nM

----------
assay: Tmax in cynomolgus monkey at 5 mg/kg, po; format: ADME, organism-based, Macaca fascicularis; set-up: dose 5 mg/kg, route oral; details: in vivo
measure: Tmax (h)
Expressed in h, but write only the number.

Prompt line: Param item = Cc1c(NC(=O)OC[C@@H]2COCCN2)cn2ncnc(Nc3ccc4c(cnn4Cc4cccc(F)c4)c3)c12 ; retrieve measured Tmax.
Response line: 1.5
